System: 379773-124-R-J2-PDC spheroid viability;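 further: spheroids exposed to drugs for seven days before readout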
measurement.notes: Anticancer human tumor 379773-124-R-J2-PDC patient-derived endometrial carcinoma cell line growth inhibition [POLQ]; active means viability on the fitted dose curve at most 10% of control; inactive means the rest
measurement.context: second compound 3.16 µM; first compound 0.1 µM; spheroids with HUVEC and MSC
Hi there, use one of these labels in your reply, thanks! active, inactive

Challenge: Just curious, what result did CC(C)n1c(=O)n(C)c2cnc3cc(F)c(-c4ccc(OCCCN5CCCCC5)nc4)cc3c21 + Cc1cccc(N(C)C(=O)C2C(O)CCN2c2nc(C)cc(C(F)(F)F)c2C#N)c1 get here?
Response given: inactive

Challenge: Just curious, what result did Nc1ccn(C2OC(CO)C(O)C2(F)F)c(=O)n1 (stereo not given) + Nc1ccc(C#CCN(C(=O)Cc2ncc(C(F)(F)F)cc2C(F)(F)F)c2ccc(F)cc2)nn1 get here?
Response given: inactive

Challenge: Just curious, what result did COc1ccc([C@@H](O)c2cc(-c3ncnc4cc(N5CCOCC5)ccc34)c(F)cc2Cl)nn1 + Cc1cccc(N(C)C(=O)C2C(O)CCN2c2nc(C)cc(C(F)(F)F)c2C#N)c1 get here?
Response given: inactive

Challenge: Just curious, what result did CC1COCCN1c1cc(C2(O)CC3CCC(C2)O3)c2cnn(-c3ccn[nH]3)c2n1 (stereo not given) + COC1C(OC(N)=O)C(O)C(Oc2ccc3c(O)c(NC(=O)c4ccc(O)c(CC=C(C)C)c4)c(=O)oc3c2C)OC1(C)C get here?
Response given: inactive

Challenge: Just curious, what result did CC(C)n1c(=O)n(C)c2cnc3cc(F)c(-c4ccc(OCCCN5CCCCC5)nc4)cc3c21 + COC1C(OC(N)=O)C(O)C(Oc2ccc3c(O)c(NC(=O)c4ccc(O)c(CC=C(C)C)c4)c(=O)oc3c2C)OC1(C)C get here?
Response given: inactive

Challenge: Just curious, what result did COc1cccc(OCCCN)c1-c1cc(Nc2cnc(C#N)cn2)n[nH]1 + COC1C(OC(N)=O)C(O)C(Oc2ccc3c(O)c(NC(=O)c4ccc(O)c(CC=C(C)C)c4)c(=O)oc3c2C)OC1(C)C get here?
Response given: active

Challenge: Just curious, what result did Cn1ncnc1[C@H]1c2n[nH]c(=O)c3cc(F)cc(c23)N[C@@H]1c1ccc(F)cc1 + Nc1ccc(C#CCN(C(=O)Cc2ncc(C(F)(F)F)cc2C(F)(F)F)c2ccc(F)cc2)nn1 get here?
Response given: inactive

Challenge: Just curious, what result did CCCS(=O)(=O)Nc1ccc(F)c(C(=O)c2c[nH]c3ncc(-c4ccc(Cl)cc4)cc23)c1F + COC1C(OC(N)=O)C(O)C(Oc2ccc3c(O)c(NC(=O)c4ccc(O)c(CC=C(C)C)c4)c(=O)oc3c2C)OC1(C)C get here?
Response given: inactive

Challenge: Just curious, what result did CC[C@@]1(O)C(=O)OCc2c1cc1n(c2=O)Cc2cc3c(CN(C)C)c(O)ccc3nc2-1 + COC1C(OC(N)=O)C(O)C(Oc2ccc3c(O)c(NC(=O)c4ccc(O)c(CC=C(C)C)c4)c(=O)oc3c2C)OC1(C)C get here?
Response given: inactive

Challenge: Just curious, what result did CCCS(=O)(=O)Nc1ccc(F)c(C(=O)c2c[nH]c3ncc(-c4ccc(Cl)cc4)cc23)c1F + Nc1ccc(C#CCN(C(=O)Cc2ncc(C(F)(F)F)cc2C(F)(F)F)c2ccc(F)cc2)nn1 get here?
Response given: inactive
